Parameter: pIC50. Scope: all listed entries.
Test system: CEM cells HIV-1 protection, formazan growth assay
Assay: NCI AIDS Antiviral Assay
Details: measured here: growth of uninfected CEM cells
pIC50: −log10 of the molar value.

Use the examples below as a reference point.
- COMPOUND: "CSc1n[nH]c(=O)c2nc[nH]c12"
  DATA VALUE: "< 3.61"
- COMPOUND: "COc1cc(Oc2nc3cc(F)c(F)cc3nc2-c2ccccc2)cc(OC)c1OC"
  DATA VALUE: 4.45
- COMPOUND: "CCOC(=O)C(Cc1ccc([N+](=O)[O-])cc1)NC(=O)CC1c2ccccc2-c2ccccc21 (stereo unspecified)"
  DATA VALUE: "< 4.93"
- COMPOUND: "Cc1nc(OCc2ccccc2)c2ncn(CCO)c2n1"
  DATA VALUE: "< 3.70"
- COMPOUND: "NC(=O)C#CC#CC#CCO"
  DATA VALUE: 6.32

Ask: Returns the measured pIC50 for the input compound. Input: Cn1c(N)c(Br)c(=O)n(C)c1=O
Result: < 3.70
